# Lookup of reported T/C keyed by entry
- Tested on: CD2F1 mice, L1210 leukemia ip, survival T/C
- measurement protocol: NCI In Vivo Anticancer Drug Screen. Data for tumor model L1210 Leukemia (intraperitoneal) in CD2F1 (CDF1) mice
- conditions: endpoint: mean survival time; dose: 200.0 mg/kg/injection; schedule: Q01DX001 (ip); vehicle: saline with Tween-80; higher = longer survival
Inconclusive results and toxic doses are left out.

# compound, T/C
records = [
    ("O=[N+]([O-])c1ccc(C2N(Cc3ccc(Cl)cc3)CCN2Cc2ccc(Cl)cc2)cc1", "96 % of control"),
    ("Cc1ccc(NC(=O)Nc2cccc(-n3cnc4c(=O)[nH]c(N)nc43)c2)cc1S(=O)(=O)F", "88 % of control"),
    ("CCCCC(CCC)OC(=O)Nc1cccc2ccccc12 (stereo not given)", "93 % of control"),
    ("c1ccc(C2COCC2c2ccccc2)cc1 (stereo not given)", "92 % of control"),
    ("O=C(NC(=S)c1ccccc1)Nc1ccc(Cl)cc1", "94 % of control"),
]

The measured values listed here are drawn from PubChem BioAssay AID256.
